tested on: sweet potato root-knot nematodes; test: Nematode Control Test Example 1: emulsions mixed with infested soil, cherry tomato pot test; format: in vivo; details: cherry tomato, after six weeks; sprayed liquid 10 ppm, concentration in soil 0.3 ppm, mixed with soil

[
  {
    "compound": "CO[C@H]1C[C@H](O[C@H]2[C@H](C)O[C@@H](O[C@@H]3/C(C)=C/C[C@@H]4C[C@@H](C[C@]5(C=C[C@H](C)[C@@H](C6CCCCC6)O5)O4)OC(=O)[C@@H]4C=C(C)[C@@H](O)[C@H]5OC/C(=C\\C=C\\[C@@H]3C)[C@]54O)C[C@@H]2OC)O[C@@H](C)[C@@H]1O [DOR, doramectin]",
    "unit annotation": "g/stock",
    "Aerial part weight": 3.8
  },
  {
    "compound": "CC1=C[C@H]2C(=O)O[C@H]3C[C@@H](C/C=C(\\C)C[C@@H](C)/C=C/C=C4\\CO[C@H]([C@@H]1O)[C@@]42O)O[C@]1(C3)C[C@H](O)[C@H](C)[C@@H](/C(C)=C/C(C)C)O1 [NEM, nemadectin]",
    "unit annotation": "g/stock",
    "Aerial part weight": 3.0
  },
  {
    "compound": "CO/N=C1\\C[C@]2(C[C@@H]3C[C@@H](C/C=C(\\C)C[C@@H](C)/C=C/C=C4\\CO[C@@H]5[C@H](O)C(C)=C[C@@H](C(=O)O3)[C@]45O)O2)O[C@H](/C(C)=C/C(C)C)[C@H]1C [MOX, moxidectin]",
    "unit annotation": "g/stock",
    "Aerial part weight": 4.1
  },
  {
    "compound": "CO[C@H]1C[C@H](O[C@@H]2/C(C)=C/C[C@@H]3C[C@@H](C[C@]4(CC[C@H](C)[C@@H](C5CCCCC5)O4)O3)OC(=O)[C@@H]3C=C(C)/C(=N/O)[C@H]4OC/C(=C\\C=C\\[C@@H]2C)[C@]43O)O[C@@H](C)[C@@H]1O [SEL, selamectin]",
    "unit annotation": "g/stock",
    "Aerial part weight": 2.6
  }
]
